B1: Azoarcus group I ribozyme (parent)
chain: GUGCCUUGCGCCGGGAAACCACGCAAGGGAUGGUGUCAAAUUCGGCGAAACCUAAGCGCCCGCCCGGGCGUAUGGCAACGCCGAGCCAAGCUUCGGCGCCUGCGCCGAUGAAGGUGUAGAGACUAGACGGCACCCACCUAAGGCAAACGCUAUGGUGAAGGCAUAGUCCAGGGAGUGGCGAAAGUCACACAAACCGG

Variants of: B1
Assay: reverse-splicing fitness (ratio to wild type); higher = more active; in vitro selection; Mg2+ level not given
parameter.measured: reverse-splicing fitness
// print number alone

[[record]]
mutation_name = "A111C A120G A145C C169G U176C"
parameter_measured = "reverse-splicing fitness"
number = 0.0399

[[record]]
mutation_name = "A120G A145U C150G C169G U176A"
parameter_measured = "reverse-splicing fitness"
number = 0.024

[[record]]
mutation_name = "C82A C150A U176A"
parameter_measured = "reverse-splicing fitness"
number = 0.0524

[[record]]
mutation_name = "C82A A111U A120C C150A C169A U176A"
parameter_measured = "reverse-splicing fitness"
number = 0.0227

[[record]]
mutation_name = "A111U A120U A145U C150A C169G U176G"
parameter_measured = "reverse-splicing fitness"
number = 0.00225


# input variant: C82A A111G A145C C150G C169U U176G ; wanted: its reverse-splicing fitness
0.00568

Dear colleague, I am looking for the recorded reverse-splicing fitness of the following variant: A111C A120C A145G C150A C169G U176C
0.0253

# reverse-splicing fitness lookup, item A111G A120G A145G C150A C169G U176A
0.0262

Recorded reverse-splicing fitness for C82G A111G A120U A145C C150U U176C , please?
0.00541

I have this variant here, C82U A111U A120G C169U U176A , and I need its recorded reverse-splicing fitness.
0.0215

Sample C82U A111G A145U C150G C169A U176G — what was its reverse-splicing fitness?
0.00561

Bench note: what reverse-splicing fitness did C82U A111U A120G A145U C150U C169G U176A show?
0.0119

Return reported reverse-splicing fitness; argument: C82A A111G A120U A145G
0.0318

reverse-splicing fitness for C82G A111G A120U A145C C150G C169A U176A ?
0.00237

Quick one: reverse-splicing fitness for A120G C150G U176G ?
0.00499

Data request, read-out reverse-splicing fitness, for C82G A120G A145C C150A C169G U176G
0.00456

What value of reverse-splicing fitness has been recorded for this entry: A111U A120U A145G C150G C169G
0.01

Looking for the measured reverse-splicing fitness of A111U A145C C150A C169G U176A , can you help?
0.0227

reverse-splicing fitness for A111G A120U A145U C150A C169G U176C ?
0.00285
